System: 786-0 renal
Assay: NCI tumour cell line growth inhibition, 48 h
ENDPOINT LABEL: TGI (µM)

COMPOUND SMILES	EXPERIMENTAL SYSTEM	U	MEASUREMENT QUALIFIER	RECORDED RESULT
Fc1ccccc1N=c1oc2ccc(Br)cc2cc1-c1nc2ccccc2[nH]1	786-0 renal	µM	=	8.5
O=C1[C@@H]2C3C=CC([C@H]4C(=O)N(CO)C(=O)[C@@H]34)[C@@H]2C(=O)N1CO	786-0 renal	µM	>	63.6
Oc1ccc(-c2nc(-c3ccc4oc5ccc(-c6[nH]c(-c7ccc(O)cc7)nc6-c6ccccc6)cc5c4c3)c(-c3ccccc3)[nH]2)cc1	786-0 renal	µM	=	29.8
COC(=O)c1cc2c([nH]c3ccccc32)c(-c2nc3cc(N(S(=O)(=O)c4ccc(C)cc4)S(=O)(=O)c4ccc(C)cc4)c(OC)cc3cc2CO)n1	786-0 renal	µM	=	87.8

---

Tested on: SN12C renal
Assay: NCI tumour cell line growth inhibition, 48 h
TGI values by entry
ENDPOINT LABEL: TGI

MOLECULE	RECORDED RESULT
CCOC(=O)c1ccccc1NC(c1ccccc1)c1ccc2cccnc2c1O (centres undefined)	> 100 µM
CCC1(CC)C(=O)N(C(=O)c2ccc(Cl)cc2)N(C(=O)c2ccccc2Cl)C1=O	> 100 µM
COC[C@@H](N=Cc1ccc(OC)cc1)C(C)C	> 100 µM
O=C1c2ccccc2CC1C1(O)C(=O)Nc2c(Cl)cc(Cl)cc21 (centres undefined)	> 100 µM
CCCCCC1C2C(=O)NC(=O)C1C(=O)NC2=O (centres undefined)	> 100 µM
O=S(=O)(CC#CCS(=O)(=O)c1ccccc1)c1ccccc1	12.4 µM
C[As](C)SCC(COC(=O)c1ccccc1)OC(=O)c1ccccc1 (centres undefined)	1.23 µM
COCC(O)CN1C(N)=NC(O)C1O (centres undefined)	> 100 µM
O=S(=O)(N1CCCCN(S(=O)(=O)C(F)(F)F)CCCN(S(=O)(=O)C(F)(F)F)CCCN(S(=O)(=O)C(F)(F)F)CCCCN(S(=O)(=O)C(F)(F)F)CCCN(S(=O)(=O)C(F)(F)F)CCC1)C(F)(F)F	> 100 µM
Cc1cc(N2CCOCC2)nc(N(CCNc2ccnc3cc(Cl)ccc23)Cc2cccs2)n1	4.01 µM
CC1CCCC2(O1)OC1CC(=O)OC1C1=C2C(=O)c2ccccc2C1=O (centres undefined)	4.77 µM
CC(C)(C)OC(=O)N1CC(COS(C)(=O)=O)c2ccc(O)cc21 (centres undefined)	6.77 µM
COc1ccc(-c2nccn2-c2cc(OC)c(OC)c(OC)c2)cc1	> 100 µM
Cc1nn(C(=O)CC(=O)Nc2ccccc2Cl)c(C)c1N=Nc1ccccc1Cl	> 100 µM

---

Test system: SK-MEL-28 melanoma
Assay: NCI tumour cell line growth inhibition, 48 h
ENDPOINT LABEL: TGI

COMPOUND SMILES	RECORDED RESULT
CCN1CCc2sc3[nH]c(=S)n(C)c(=O)c3c2C1	> 100 µM
Nc1c2ccccc2nc2ccc(C(=O)Nc3ccc(S(N)(=O)=O)cc3)cc12	> 100 µM
CCC1(CC)C(=O)N(C(=O)c2ccc(Cl)cc2)N(C(=O)c2ccccc2Cl)C1=O	> 100 µM
CN1CCN(Cc2ccc(NC(=O)c3cncc(C#Cc4c(N)ncc5ccc(F)cc45)c3)cc2C(F)(F)F)CC1	1.37 µM

---

TGI values by entry
Test system: HOP-62 NSCLC
Assay: NCI tumour cell line growth inhibition, 48 h

COMPOUND	TGI
COc1ccc2nccc(C3OC(=O)N4CCC(=O)CC34)c2c1 (centres undefined)	> 100 µM
CC1(C)CC(=O)C2=C(C1)OC1=C(CC(C)(C)CC1=O)C2c1ccccc1Cl (centres undefined)	> 100 µM
COc1cccc2c(NNc3ccc(Cl)cc3)c3ccc([N+](=O)[O-])cc3nc12	24.2 µM
CC(C)NC(=O)OCc1c(COC(=O)NC(C)C)c(-c2ccc[n+](COC(=O)C3CCCCC3)c2)n2c1CCC2	> 100 µM
CC(=O)NC1C(=O)CC(c2ccccc2)N(C)C1c1ccccc1 (centres undefined)	> 100 µM
COc1ccc(N2CCN(CC(=O)N3CCN(c4nnc(-c5ccc(Cl)cc5)c(-c5ccc(Cl)cc5)n4)CC3)CC2)cc1	> 100 µM
CCO/C=N/C1=C(C#N)C(c2ccc(OC)c(OC)c2)c2c(-c3ccccc3)nn(-c3ccccc3)c2O1 (centres undefined)	> 100 µM
Cc1cc(C)n(CN(Cn2nc(C)cc2C)c2ccc(N(Cn3nc(C)cc3C)Cn3nc(C)cc3C)cc2)n1	52.7 µM
Cc1nc2c(=O)n(C)c(=O)nc-2n(-c2ccc(Cl)cc2)c1C	> 100 µM

---

GI50 values by entry
System: CAKI-1 renal
Test: NCI tumour cell line growth inhibition, 48 h
ENDPOINT LABEL: GI50

MOLECULE	ENDPOINT LABEL	RECORDED RESULT
COc1ccc(-c2nccn2-c2cc(OC)c(OC)c(OC)c2)cc1	GI50	1220 nM
CCCCCCCCCCCCOC1C(C(COC2OC(C(O)CO)C3OC(C)(C)OC23)OC(=O)Nc2ccc([N+](=O)[O-])cc2)OC2OC(C)(C)OC21 (stereo not drawn)	GI50	2550 nM
Oc1c(Br)cc(Br)c2cccnc12	GI50	2290 nM
COC(=O)[C@@H](C)C[C@H](Cc1ccccc1)NC(=O)c1cccc([C@@H](C[C@H](C(C)C)N(C)C(=O)[C@@H](NC(=O)[C@H]2CCCCN2C)C(C)C)OC(C)=O)n1	GI50	1.73 nM
CN(C)c1ccc(/C=C/C(=O)c2ccc(Nc3nc(Nc4ccc(F)cc4)nc(Nc4ccc(Cl)cc4)n3)cc2)cc1	GI50	14600 nM
Cn1cc(C2=C(c3cn(CCCSC(=N)N)c4ccccc34)C(=O)NC2=O)c2ccccc21	GI50	7680 nM
COc1ccc(/C=C2\CC(C)CC3C2=NN(C(C)=O)C3c2ccc(OC)c(OC)c2)cc1OC (stereo not drawn)	GI50	53300 nM
CCN(CC)CCC(CNc1c2ccc(Cl)cc2nc2ccc(OC)cc12)c1ccccc1 (stereo not drawn)	GI50	1300 nM

---

System: HCC-2998 colon
Test: NCI tumour cell line growth inhibition, 48 h
TGI values by entry
ENDPOINT LABEL: TGI

COMPOUND	EXPERIMENTAL SYSTEM	RECORDED RESULT
CCS(=O)(=O)Nc1ccc(Oc2ccc(F)cc2F)c(-c2cn(C)c(=O)c3[nH]ccc23)c1	HCC-2998 colon	1.38 µM
O=C1NC(N2CCCC(CO)C2)=N/C1=C\c1ccc(O)cc1 (stereo not given)	HCC-2998 colon	> 100 µM
COc1cc2c(oc(=O)c3c4oc([Si](C)(C)C)cc4cc(OC)c23)c2cccc(O)c12	HCC-2998 colon	> 100 µM
S=C(N/N=C/c1ccccc1)NC1CC(c2ccccc2)Oc2ccccc21 (stereo not given)	HCC-2998 colon	> 100 µM
CCCCCCCCCCCCOC1C(C(COC2OC(C(O)CO)C3OC(C)(C)OC23)OC(=O)Nc2ccc([N+](=O)[O-])cc2)OC2OC(C)(C)OC21 (stereo not given)	HCC-2998 colon	25.1 µM
Cc1cc(N2CCOCC2)nc(N(CCNc2ccnc3cc(Cl)ccc23)Cc2cccs2)n1	HCC-2998 colon	5.11 µM
CC(C)(C)OC(=O)N1CC(COS(C)(=O)=O)c2ccc(O)cc21 (stereo not given)	HCC-2998 colon	0.991 µM
N#Cc1ccc(/C=C2\Cc3ccccc3C2=O)cc1	HCC-2998 colon	> 100 µM
CC(=O)NC1C(=O)CC(c2ccccc2)N(C)C1c1ccccc1 (stereo not given)	HCC-2998 colon	> 100 µM
N#Cc1ccc(NC(=NCC(=O)O)Nc2ccc3ccccc3c2)cc1	HCC-2998 colon	> 10 µM

---

Tested on: SK-MEL-5 melanoma
Experiment: NCI tumour cell line growth inhibition, 48 h

COMPOUND	EXPERIMENTAL SYSTEM	GI50
NCCN.O=N[O-].O=N[O-].O=N[O-].O=N[O-].[Co+3].[K+]	SK-MEL-5 melanoma	> 100 µM
COc1ccc2c(c1)CCC1C2CCC2(C)C1CC[C@@]2(O)CNC(=O)/C=C/c1ccc(O)c(O)c1 (stereo not given in full)	SK-MEL-5 melanoma	3.41 µM
N#Cc1ccccc1C#C/C=C\C#Cc1cnccn1	SK-MEL-5 melanoma	17 µM
N#Cc1c(-c2ccc(Cl)cc2)n([O-])c2ccccc2[n+]1=O	SK-MEL-5 melanoma	15.9 µM
CCCCCCCCCCCCOC1C(C(COC2OC(C(O)CO)C3OC(C)(C)OC23)OC(=O)Nc2ccc([N+](=O)[O-])cc2)OC2OC(C)(C)OC21 (stereo not given)	SK-MEL-5 melanoma	1.71 µM
COc1cc2c(c(OC)c1OC)-c1c(c3ccc([N+](=O)[O-])cc3c(=O)n1CCCN=[N+]=[N-])C2=O	SK-MEL-5 melanoma	> 100 µM
Cn1cnc2nc(Cl)nc(Cl)c21	SK-MEL-5 melanoma	2.7 µM
COc1ccc(/C=C2\CC(C)CC3C2=NN(C(C)=O)C3c2ccc(OC)c(OC)c2)cc1OC (stereo not given)	SK-MEL-5 melanoma	12.7 µM
CCOC(=O)c1ccccc1NC(c1ccccc1)c1ccc2cccnc2c1O (stereo not given)	SK-MEL-5 melanoma	2.04 µM
CNCc1ccc(C)c(NC(=O)c2ccc(Nc3nc(-c4ccccc4)c4ccccc4n3)cc2)c1	SK-MEL-5 melanoma	1.71 µM
